Reported rat MASP1 IC50 is given for each of the following binders.
- studySystem: T1, recombinant rat MASP1 active protease (amino acids 302-704, C-terminal His Tag) (rat, UniProt Q8CHN8 302-704)
- T1 sequence: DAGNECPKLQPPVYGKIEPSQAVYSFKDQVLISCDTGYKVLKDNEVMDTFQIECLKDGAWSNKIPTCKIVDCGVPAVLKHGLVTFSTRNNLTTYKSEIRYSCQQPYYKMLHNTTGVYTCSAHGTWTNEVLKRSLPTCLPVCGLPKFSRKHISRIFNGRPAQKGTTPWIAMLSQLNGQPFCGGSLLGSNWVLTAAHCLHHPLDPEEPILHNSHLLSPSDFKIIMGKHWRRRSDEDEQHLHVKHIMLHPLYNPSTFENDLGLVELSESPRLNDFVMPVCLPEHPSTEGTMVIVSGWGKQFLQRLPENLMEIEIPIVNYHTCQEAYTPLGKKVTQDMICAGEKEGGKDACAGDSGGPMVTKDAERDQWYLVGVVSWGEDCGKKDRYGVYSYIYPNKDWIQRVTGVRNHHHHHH
- measurementDescription: cell-based or functional assay
Bridge positions count the residues as written; N and C are the ends. Square brackets hold non-standard residues; d marks the D form. Ends that are not written are not given here. Pro(4-spirocPr) = O=C(O)[C@@H]1CC2(CC2)CN1; tBuAla = CC(C)(C)C[C@H](N)C(=O)O; Pen = CC(C)(S)[C@H](N)C(=O)O; Abu = CC[C@H](N)C(=O)O; Sar = CNCC(=O)O
Provide only the numeric value, understood in nM.

Answered examples (4):
INSERT INTO results (binder, observedproperty, testvalue) VALUES
  ('XICSRS[tBuAla]PPI[Pen]IPD-OH (disulfide 3-11; not fully specified (residue 1); printed as (beta-P)-IC + SRS-((tBu)A)-PPI-(Pen) + IPD-OH) [Example 480: (beta-P)-IC+SRS-((tBu)A)-PPI-(Pen)+IPD-OH]', 'rat MASP1 IC50', 24),
  ('[Sar]ICSRSLPPICI[Abu]D-OH (disulfide 3-11; N-terminus assumed; SMILES CC[C@H](NC(=O)[C@@H](NC(=O)[C@@H]1CSSC[C@H](NC(=O)[C@@H](NC(=O)CNC)[C@@H](C)CC)C(=O)N[C@@H](CO)C(=O)N[C@@H](CCCNC(=N)N)C(=O)N[C@@H](CO)C(=O)N[C@@H](CC(C)C)C(=O)N2CCC[C@H]2C(=O)N2CCC[C@H]2C(=O)N[C@@H]([C@@H](C)CC)C(=O)N1)[C@@H](C)CC)C(=O)N[C@@H](CC(=O)O)C(=O)O) [Example 313: ((N-Me)G)-IC+SRSLPPIC+I-(Abu)-D-OH]', 'rat MASP1 IC50', 220),
  ('[Sar]ICSRS[tBuAla]P[Pro(4-spirocPr)]I[Pen]IP-NH2 (disulfide 3-11; N-terminus assumed; SMILES CC[C@H](C)[C@H](NC(=O)CNC)C(=O)N[C@H]1CSSC(C)(C)[C@@H](C(=O)N[C@H](C(=O)N2CCC[C@H]2C(N)=O)[C@@H](C)CC)NC(=O)[C@H]([C@@H](C)CC)NC(=O)[C@@H]2CC3(CC3)CN2C(=O)[C@@H]2CCCN2C(=O)[C@H](CC(C)(C)C)NC(=O)[C@H](CO)NC(=O)[C@H](CCCNC(=N)N)NC(=O)[C@H](CO)NC1=O)', 'rat MASP1 IC50', 36),
  ('[Sar]ICSRS[tBuAla]PPI[Pen]IP-{PEG4‑CH2CO2H (15 atoms)-NH2} (disulfide 3-11) [Example 73: ((N-Me)G)-IC+SRS-((tBu)A)-PPI-(Pen)+IP-(PEG4-CH2CO2H (15 atoms))-NH2]', 'rat MASP1 IC50', 43);

Input line: Consider the binder [Sar]ICSRS[tBuAla]PPI[Pen]IP-NH2 (disulfide 3-11; N-terminus assumed; SMILES CC[C@H](C)[C@H](NC(=O)CNC)C(=O)N[C@H]1CSSC(C)(C)[C@@H](C(=O)N[C@H](C(=O)N2CCC[C@H]2C(N)=O)[C@@H](C)CC)NC(=O)[C@H]([C@@H](C)CC)NC(=O)[C@@H]2CCCN2C(=O)[C@@H]2CCCN2C(=O)[C@H](CC(C)(C)C)NC(=O)[C@H](CO)NC(=O)[C@H](CCCNC(=N)N)NC(=O)[C@H](CO)NC1=O) [Example 156: ((N-Me)G)-IC+SRS-((tBu)A)-PPI-(Pen)+IP-NH2] and give its measured rat MASP1 IC50.
Output line: 21

The reported numbers originate from patent US20210246166A1.
